TARGET_OR_TEST_SYSTEM: Serine/threonine-protein kinase B-raf (Homo sapiens)
TEST_PROTOCOL: Binding affinity to recombinant human full-length wild type B-Raf (unknown origin) assessed as VFLPNK accessible protease cleavage peptide level by LC-MS/MS analysis relative to control
# note: boundary value 1 maps to False; Ratio below it maps to True

Consider the following illustrative entries.
-- ask Bench note: check whether CCN(C)S(=O)(=O)Nc1ccc(F)c(C(=O)c2c[nH]c3ncc(-c4ccc(Cl)cc4)cc23)c1F shows Ratio below 1
-- reply True

-- ask Consider Nc1ncnc2c1ncn2[C@@H]1O[C@H](COP(=O)(O)OP(=O)(O)O)[C@@H](O)[C@H]1O . Does its Ratio lie strictly below 1?
-- reply False

-- ask Please indicate whether the reported Ratio of Nc1ncnc2c1ncn2[C@@H]1O[C@H](COP(=O)(O)OP(=O)(O)NP(=O)(O)O)[C@@H](O)[C@H]1O is strictly below 1.
-- reply True

Others:
-- ask Confirm or reject: Ratio of Nc1ncnc2c1ncn2[C@@H]1O[C@H](COP(=O)(O)OP(=O)(O)OP(=O)(O)O)[C@@H](O)[C@H]1O lies strictly below 1
-- reply True

* * *

TARGET_OR_TEST_SYSTEM: Serine/threonine-protein kinase B-raf (Homo sapiens, UniProt P15056)
Sequence (P15056 whole entry): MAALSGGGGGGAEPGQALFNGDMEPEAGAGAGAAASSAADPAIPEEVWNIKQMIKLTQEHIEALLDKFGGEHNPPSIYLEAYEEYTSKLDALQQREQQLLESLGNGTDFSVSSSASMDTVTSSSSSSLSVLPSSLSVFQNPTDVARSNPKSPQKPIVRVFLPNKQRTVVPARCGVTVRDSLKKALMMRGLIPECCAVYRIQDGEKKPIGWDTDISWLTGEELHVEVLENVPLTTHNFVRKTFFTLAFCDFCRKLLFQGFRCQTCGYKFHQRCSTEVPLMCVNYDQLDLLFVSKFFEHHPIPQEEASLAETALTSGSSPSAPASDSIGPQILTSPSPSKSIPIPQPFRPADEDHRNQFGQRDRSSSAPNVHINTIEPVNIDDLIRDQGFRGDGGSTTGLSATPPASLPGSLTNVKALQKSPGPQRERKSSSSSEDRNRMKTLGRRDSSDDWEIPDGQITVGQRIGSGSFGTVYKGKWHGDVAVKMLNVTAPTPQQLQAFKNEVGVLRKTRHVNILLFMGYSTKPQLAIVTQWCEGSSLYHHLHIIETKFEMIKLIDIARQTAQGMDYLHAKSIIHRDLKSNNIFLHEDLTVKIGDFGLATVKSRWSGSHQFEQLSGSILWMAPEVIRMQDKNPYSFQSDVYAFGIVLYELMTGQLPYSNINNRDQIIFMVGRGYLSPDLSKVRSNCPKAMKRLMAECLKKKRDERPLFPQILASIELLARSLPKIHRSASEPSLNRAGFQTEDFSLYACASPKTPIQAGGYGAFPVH
TEST_PROTOCOL: Binding affinity to recombinant human full-length wild type B-Raf (unknown origin) assessed as SPQKPIVR accessible protease cleavage peptide level by LC-MS/MS analysis relative to control
Each record here notes measured Ratio.

Solved cases (2 shown):
For CCN(C)S(=O)(=O)Nc1ccc(F)c(C(=O)c2c[nH]c3ncc(Cl)cc23)c1F the compound record lists Ratio as 1.11

# Ratio (compound: Nc1ncnc2c1ncn2[C@@H]1O[C@H](COP(=O)(O)OP(=O)(O)NP(=O)(O)O)[C@@H](O)[C@H]1O ) is 0.83

Further cases:
Documented Ratio of Nc1ncnc2c1ncn2[C@@H]1O[C@H](COP(=O)(O)OP(=O)(O)OP(=O)(O)O)[C@@H](O)[C@H]1O : 0.64

Reported Ratio for CCN(C)S(=O)(=O)Nc1ccc(F)c(C(=O)c2c[nH]c3ncc(-c4ccc(Cl)cc4)cc23)c1F was 0.94

Record summary for Nc1ncnc2c1ncn2[C@@H]1O[C@H](COP(=O)(O)OP(=O)(O)O)[C@@H](O)[C@H]1O : reported Ratio = 1.14

* * *

Ratio: recorded values
TARGET_OR_TEST_SYSTEM: Serine/threonine-protein kinase B-raf (Homo sapiens)
TEST_PROTOCOL: Binding affinity to recombinant human full-length wild type B-Raf (unknown origin) assessed as SIIHRDLK accessible protease cleavage peptide level by LC-MS/MS analysis relative to control

Measured on Serine/threonine-protein kinase B-raf (Homo sapiens), CCN(C)S(=O)(=O)Nc1ccc(F)c(C(=O)c2c[nH]c3ncc(-c4ccc(Cl)cc4)cc23)c1F has a documented Ratio of 0.3

Item Nc1ncnc2c1ncn2[C@@H]1O[C@H](COP(=O)(O)OP(=O)(O)NP(=O)(O)O)[C@@H](O)[C@H]1O was tested on Serine/threonine-protein kinase B-raf (Homo sapiens); the reported Ratio is 0.37

More entries:
The molecule CCN(C)S(=O)(=O)Nc1ccc(F)c(C(=O)c2c[nH]c3ncc(Cl)cc23)c1F on Serine/threonine-protein kinase B-raf (Homo sapiens): Ratio was 0.47

For Nc1ncnc2c1ncn2[C@@H]1O[C@H](COP(=O)(O)OP(=O)(O)O)[C@@H](O)[C@H]1O on Serine/threonine-protein kinase B-raf (Homo sapiens), measured Ratio was 0.32

Bench note, Serine/threonine-protein kinase B-raf (Homo sapiens): Nc1ncnc2c1ncn2[C@@H]1O[C@H](COP(=O)(O)OP(=O)(O)OP(=O)(O)O)[C@@H](O)[C@H]1O , Ratio reads 1.16
